# system tested: NRAS Q61R (Homo sapiens, UniProt P01111+P62937, Q61R)
# Sequence (P01111 whole entry Q61R): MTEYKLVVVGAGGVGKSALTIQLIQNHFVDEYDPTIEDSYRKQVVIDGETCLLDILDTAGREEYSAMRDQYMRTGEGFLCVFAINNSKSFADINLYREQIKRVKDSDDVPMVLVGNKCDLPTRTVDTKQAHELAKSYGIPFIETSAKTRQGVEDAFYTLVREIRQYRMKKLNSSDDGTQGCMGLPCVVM
# Sequence (P62937 whole entry): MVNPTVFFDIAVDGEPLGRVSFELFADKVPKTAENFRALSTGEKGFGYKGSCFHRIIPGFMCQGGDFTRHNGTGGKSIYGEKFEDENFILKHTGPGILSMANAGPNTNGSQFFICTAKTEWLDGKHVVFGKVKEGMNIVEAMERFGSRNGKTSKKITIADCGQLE
# assay notes: Disruption of BRAF RBD interaction with Ras (FRET / MOA assay)
# Format: biochemical
# run parameters: read-out: NRAS Q61R FRET data IC50
readout: IC50

compound | system tested | IC50
CCn1c(-c2cccnc2[C@H](C)OC)c2c3cc(ccc31)-c1cc(O)cc(c1)C[C@H](NS(=O)(=O)C1CS(=O)(=O)C1)C(=O)N1CCC[C@H](N1)C(=O)OCC(C)(C)C2 (racemic) [Compound A191] | NRAS Q61R (Homo sapiens, UniProt P01111+P62937, Q61R) | > 10000 nM

Prompt line: Report IC50 for CCn1c(-c2cccnc2[C@H](C)OC)c2c3cc(ccc31)-c1cc(O)cc(c1)C[C@H](NC(=O)[C@H](C(C)C)N(C)C(=O)[C@@H]1OCC[C@H]1c1ccccc1)C(=O)N1CCC[C@H](N1)C(=O)OCC(C)(C)C2 (atropisomer, axis not shown) [Compound A584] please.
Response line: 10 to 100 nM
